Source listed as patent US9409887B2.

SYSTEM_TESTED: EGFR-T790M/L858R (Homo sapiens (Human), UniProt P00533, L858R/T790M)
TEST_NAME: Omnia biochemical assay, EGFR (T790M/L858R) active enzyme
TEST_CONTEXT: biochemical IC50, WT EGFR vs EGFR (T790M/L858R)
Each record here notes measured Ratio WT/mutant.
METRIC_NAME: Ratio WT/mutant

1) C=CC(=O)Nc1cccc(Nc2nc(Nc3ccc(NC4CN(CCF)C4)cc3OC)ncc2C(F)(F)F)c1: >1
2) C=CC(=O)Nc1cccc(Nc2nc(Nc3ccc(NC(C)C)cc3OC)ncc2C(F)(F)F)c1: >20
3) C=CC(=O)Nc1cccc(Oc2nc(Nc3ccc(NC(C)C)cc3OC)ncc2Cl)c1: >25
4) C=CC(=O)Nc1cccc(Nc2nc(Nc3ccc(NC4CN(C(C)=O)C4)cc3OC)ncc2C(F)(F)F)c1: >15
5) C=CC(=O)Nc1cccc(Nc2nc(Nc3ccc(NC4CN(C(=O)OC(C)(C)C)C4)cc3OC)ncc2C(F)(F)F)c1: >50
